assay-explanation: Thermodynamic solubility / solubility in aqueous solution
Format: physicochemical
condition-context: aqueous buffer, thermodynamic from solid; Buffer pH 7.4; 4 days at ambient temperature; read-out: Solubility, Buffer pH 7.4
attribute-measured: solubility at 4 days (µg/mL)
All answers are understood in µg/mL, so give the number only.

Please give the documented solubility at 4 days of O=C1CCc2cc(/C=C/C(=O)N3CCC=C(c4ccccc4)CC3)cnc2N1 [Co. No. 2] 3

====

Test system: S. aureus
assay-explanation: Antibacterial susceptibility testing: IC90 determination with 10% human serum (STA + 10% HS)
Assay type: cell-based
condition-context: Staphylococcus aureus; S. aureus with human serum at final concentration of 10%; read-out: STA + 10% HS (361.169) IC90
Method: The following bacteria were used: Staphylococcus aureus ATCC 29213, methicillin-resistant Staphylococcus aureus (MRSA) ATCC 700788 and Escherichia coli ATCC 35218. The bacteria used in this study were grown overnight in flasks containing 100 ml Mueller-Hinton broth (Difco cat. nr. 0757-17) in sterile de-ionized water, with shaking, at 37° C. Stocks were store at −70° C. until use. […]
attribute-measured: IC90 (µg/mL)
All answers are understood in µg/mL, so give the number only.

{"molecule": "COc1cccc(F)c1C1=CCCN(C(=O)/C=C/c2cnc3c(c2)CCC(=O)N3)CC1 [Co. No. 31]", "tested-on": "S. aureus", "IC90 (µg/mL)": 0.26}
{"molecule": "O=C1CCc2cc(/C=C/C(=O)N3CCC=C(c4ccccc4F)CC3)cnc2N1 [Co. No. 23]", "tested-on": "S. aureus", "IC90 (µg/mL)": 0.35}
{"molecule": "Cc1ccc(F)cc1C1=CCCN(C(=O)/C=C/c2cnc3c(c2)CCC(=O)N3)CC1 [Co. No. 15]", "tested-on": "S. aureus", "IC90 (µg/mL)": 1.02}

Kindly review the next molecule as well.
Please give the documented IC90 of Cc1ccccc1C1=CCCN(C(=O)/C=C/c2cnc3c(c2)CCC(=O)N3)CC1 [Co. No. 8] 0.84

====

assay-explanation: Cytotoxicity MTT assay (TOX HELAM)
Type: cell-based
condition-context: human, HelaM cells, read-out: TOX HELAM (222.125) CC50
attribute-measured: CC50 at 72 h

Consider the worked cases shown below.
{"compound": "O=C1CCc2cc(/C=C/C(=O)N3CC=C(c4cccc(Cl)c4)CCC3)cnc2N1", "CC50 at 72 h": "8.23 µg/mL"}
{"compound": "Cc1ccccc1C1=CCN(C(=O)/C=C/c2cnc3c(c2)CCC(=O)N3)CCC1", "CC50 at 72 h": "> 9.73 µg/mL"}
{"compound": "O=C1CCc2cc(/C=C/C(=O)N3CC=C(Cc4ccccc4)CCC3)cnc2N1", "CC50 at 72 h": "> 9.73 µg/mL"}

Kindly review the next compound as well.
Please give the documented CC50 at 72 h of `COc1ccc(C2=CCN(C(=O)/C=C/c3cnc4c(c3)CCC(=O)N4)CCC2)cc1` > 10.1 µg/mL

====

assay-explanation: Thermodynamic solubility / solubility in aqueous solution
Format: physicochemical
condition-context: aqueous with cosolvent or surfactant or cyclodextrin, thermodynamic from solid; 20% HP-β-CD buffer pH 4; 4 days at ambient temperature; read-out: Solubility, 20% HP-β-CD buffer pH 4
Experimental: The pH solubility profiling was carried out at ambient temperature for a period of 4 days. A saturation solubility study was carried out in order to determine maximum solubility in a particular buffer solution. The compound was added to respective buffer solution until saturation point is reached. This was followed by shaking the flask for 4 days at ambient temperature. After 4 days, the solutions were filtered and injected on UPLC and the concentration was determined using a generic HPLC method.
Quick reference: solubility at 4 days of the listed items.

{"compound": "O=C1CCc2cc(/C=C/C(=O)N3CCC=C(c4ccccc4)CC3)cnc2N1 [Co. No. 2]", "solubility at 4 days": "980 µg/mL"}

Kindly review the next compound as well.
Please give the documented solubility at 4 days of COc1ccc(F)cc1C1=CCCN(C(=O)/C=C/c2cnc3c(c2)CCC(=O)N3)CC1 [Co. No. 27] 440 µg/mL

Values compiled from patent US9394295B2.
